experimental details: yeast display, Sf9 membrane polyspecificity reagent, FACS + sequencing; frameworks hold sequencing errors
property: polyreactivity (PSR sort gate)

entry_sequence=QVQLVESGGGLVQAGGSLRLSCAASGSILGVNVMGWYRQAPGKERELVAAISLSSSRTNYADSVKGRFTISRDNAKNTVYLQMNSLKPVDTAVYDCASAVRPGYARPYTSWGQGTQVTVSS property="polyreactivity (PSR sort gate)" experimental_value="high polyreactivity"
entry_sequence=QVQLVESGGGLVQAGGSLRLSCAASGRIFYYNAMGWYRQAPGKERELVAAITFDGGRTYYADSVKGRFTISRDNAKNTVYLQMNSLKPEDTAVYYCAASWYYSDFYMYYWGQGTQVTVSS property="polyreactivity (PSR sort gate)" experimental_value="high polyreactivity"
entry_sequence=QVQLVETGGGLVQAGGSLRLSCAASGRTYLIYAMGWYRQAPGKERELVAAIRDRGATTYYADSVKGRFTISRDNAKNTVYLQMNSLKPEETAVYYCAARNGAYPALKEGDYWGQGTQVTVSS property="polyreactivity (PSR sort gate)" experimental_value="high polyreactivity"

---

experimental details: yeast display, Sf9 membrane polyspecificity reagent, FACS + sequencing; frameworks hold sequencing errors
property: polyreactivity (PSR sort gate)

Below are worked cases with known answers.
entry_sequence=QVQLVESGGGLVQAGGSLRLSCAASGSIFTVYAMGWYRQAPGKESELVASIRFSSGRTYYADSVKGRFTISRDNAKNTVYLQMNSLKQEDTAVYYCASETVSWYRYYYWGQGTQVTVSS experimental_value="high polyreactivity"
entry_sequence=QVQLVESGGGLVQAGGSLRLSCSASGRIFRINAMGWYRQAPGKDRELVASISRRGGNTYYADSVKGRFTISRDNAKNTVYLQMNSLKPEDTAVYYCAADVHTPALYTYAAGDYWGQGTQVTVSS experimental_value="low polyreactivity"
entry_sequence=QVQLVESGGGLVQAGGSLRLSCAASGSIFLRNAMGWYRQAPGKERELVAAITYSSGSTYYADSVKGRFTISRDNAKNTVYLQMNSLKPEDTAVYYCAATSRSSRRYYYWGQGTQVTVSS experimental_value="high polyreactivity"
entry_sequence=QVQLVESGGGLVQAGGSLRLSCAASGSIFYYNVMGWYRQAPGKERELVAAIDIDGSTYYADSVKGRFTISRDNAKNTVYLQMNSLKPEDTAVYYCNAQAPYWFSFYSDHKYDYWGQGTQVTVSS experimental_value="low polyreactivity"
entry_sequence=QVQLVESGGGLVQAGGSLRLSCAASGIIFYLYAMGWYRQAPGKERELVAAISRRGGSTYYADSVKGRFTISRDKAKNTVYLQMNSLKPEDTAVYYCAATIGTFGYGYWGQGTQVTVSS experimental_value="high polyreactivity"
entry_sequence=QVQLVESGGGLVQAGGSHRLSCAASGRTFANYAMGWYRQAPGKERELVAAITSGGRTYYADSVKGRFTISRDNAKNTVYLQMNSLKPEDSAVYYCAADYTYDYQNDYWGQGTQVTVSS experimental_value="high polyreactivity"
entry_sequence=QVQLVESPGGLVKAGGSLRLSCDASGRTFYGYAMGWYRQPPGKEREFVAAITWSGSSTNYADSVKGRFTISRDNATNSVYLQMNSLKPDDTAVYYCAASYYAPYWSMDNWGQGTQETVSS experimental_value="high polyreactivity"
entry_sequence=QVQLVESGGGLVQAGGSLRLSCAASGITFTVYAMGWYRQAPGKERELVAAISQSGGSTYYADSVKGRFTISRDNAKNTVYLQMNSLNPEYTAVYDCNSDTVWGPYRSYIPFDYWGQGTQVNVSS experimental_value="low polyreactivity"

Record QVQLVESGGGLVQAGGSLRLSCAASGFTFITNAMGWYRQAPGNERELVASISIGGSTNYADSVKGRFTISRDNAKNTVYLQMNSLKPEDTAVYYCAARVYRRLFLPGRFGRPLGYWGQGTQVTVSS , field polyreactivity (PSR sort gate): high polyreactivity

Record QVQLVESGGGLVQAGGSLRLSCAASGFTFDDYAMGWYRQAPGKERELVATITNSDSSTYYADSVKGRFTISRDNAKNTVYLQMNSLKPEDTAVYYCNADGEGADSDYDYWGQGTQVTVSS , field polyreactivity (PSR sort gate): low polyreactivity

Record QVQLVESGGGLVQAGGSLRLSCAASGSIFESYAMGWYRQAPGKERELVAAIDSGDSTYYADSVKGRFTISRDNAKNTVYLQMNSLKPEDTAVYYCAAGYLFLKRIWQSRMDYWGQGTQVTVSS , field polyreactivity (PSR sort gate): low polyreactivity

---

experimental details: yeast display, Sf9 membrane polyspecificity reagent, FACS + sequencing; frameworks hold sequencing errors
property: polyreactivity (PSR sort gate)

entry_sequence=QVQLVESGGGLVQAGGSLRLSCAASGRTFKPYAMGWYRQARGKERELVAAISTRGGSTYYADSVKGRFTISRDNAKNTVYLQMNSLKPEDTAVYYCAATQPGRDYDYWGQGTQVTVSS property="polyreactivity (PSR sort gate)" experimental_value="low polyreactivity"
entry_sequence=QVQLVESGGGLVQAGGSLRLICADSGLTFSCYTMGGYRQAPGKERELVADITVSGGTTYYADSVKGRFSISRDNAKNTVYLQMNSLKPEDTSVYYCNAQDTFTYYSSSPTYDYWGQGTQVTVSS property="polyreactivity (PSR sort gate)" experimental_value="low polyreactivity"
entry_sequence=QVQLVETGGGLVQAGGSLRLSCAASGRTLSQNTMGWNRQAPRKEREFVASITYSGGITYYADSVKGRFTISRDNAKNTVYLQMNSLKPEDTAVYYCNKRGSHYWYSYPGDYWGQGTQVTVSS property="polyreactivity (PSR sort gate)" experimental_value="low polyreactivity"

---

experimental details: yeast display, Sf9 membrane polyspecificity reagent, FACS + sequencing; frameworks hold sequencing errors
property: polyreactivity (PSR sort gate)

Below are worked cases with known answers.
entry_sequence=QVQLVDSGGGLVQAGVSLRISCAASGSTFYANAMGWYRQAPGKERELVATITSSGTSTYYGDSVKGRFTISRDNAKNTFYLQMNSLKPEDIAVYYCAAEYSLLYWEFDYWGQGTQVTVSS property="polyreactivity (PSR sort gate)" experimental_value="low polyreactivity"
entry_sequence=QDQLVESGGGLVQAGGSLRLSCASSGFTFSKNAMGWYRQAPGKERELVAAISRGGGRTYYADSVKGRFTISRDNAKNTVYLQMNSLKPEDTAVYYCNVEKVGPGYDYWGQGTQVTVSS property="polyreactivity (PSR sort gate)" experimental_value="high polyreactivity"
entry_sequence=QVQLVESGRGLVQAGGSLRLSCAASGFIFNLYAMGWYRQAPGKERELVAAISGGGSTYYAYSVKGRFTISRDNAKNTVYLQMISLKPEDNAVYYCAKKGGHRTYGYDSWGQGTQVTVSS property="polyreactivity (PSR sort gate)" experimental_value="low polyreactivity"
entry_sequence=QVQLVESGGGLVQAGCILRLSCAASGRIFNYYTMGWYRQAPGKEMELVAAITRTGGNTYYADSVKGRFTISRDNAKNTVYLKMNSLEPEDTAVYDCNVVWLNQREYYYWGQGTHVTVSS property="polyreactivity (PSR sort gate)" experimental_value="high polyreactivity"
entry_sequence=QVQLVESGVGLVQAGGSLRLICAASGRIFANYAMGWYRQAPGKERELVAAITGSGGTTYYADSVKGRFTISRDNAKNSVYLEMNSLKPEDTAVYYCATPPPVVWQRWYREYDYWGQGTQVTVSS property="polyreactivity (PSR sort gate)" experimental_value="low polyreactivity"
entry_sequence=QVQLVESGGRLVQAGGSLPLSCAASGFIFRYYAMGWYRQAPGKERELVAAIDYSGGSTNYADSVKGRFTISRDNAKNTVYLQMNSLKPEDTAVYYCNAEYTWHRGYDYWGQGTQVTVSS property="polyreactivity (PSR sort gate)" experimental_value="low polyreactivity"
entry_sequence=QVQLAESGGGLVQAGGSLRLSCAASGSIFRLNAMGWYRQAPGKERELVAAINSGTNTYYADSVKGRFTISRDNAKNTVYLQMNSLKPEDTAVYYCAADWNDWHYDYWGQGTQVTVSS property="polyreactivity (PSR sort gate)" experimental_value="low polyreactivity"
entry_sequence=QVQLVESGGGLVQAGGSLRLSCAASGRTFYYYAMGWYRQAPGKEREMVATISGGSSTNYADSVKWRFTISRDNAKNTVYLQMNSLKPEDTAVFYCAARWWRGGGYRPNYYKLKYDYWGQGTQVTVSS property="polyreactivity (PSR sort gate)" experimental_value="high polyreactivity"

Record QVQLVESGGGLVQAGGSLRLSCAASGSIFPFNAMGWYRQAPGKERELVAAISVNGGTTYYADSVKGRFTISRDNAKNTVYLQMNSLKPEDTAVYYCNARRAYLYYVSYRYGYWGQGTQVTVSS , field polyreactivity (PSR sort gate): low polyreactivity

Record QVQLVESCGGLVQAGGSLRLSCAASGITFYGYAMGWYIQAPGKERELVARITISGRTNYADYVKGRFTISRDNAKNTVYLQMNSLKPEDTAVYYCATLVHWSYPYYYWGQGTQVTVSS , field polyreactivity (PSR sort gate): high polyreactivity

Record QVQLVESGGGLVQAGGSLRLSCAATGSTSGKNAMGWYRQAPAKERELFAAIRNSGGTTYYADSVKGRFTISRDNAKNTVYLQMNSLKPEDTAVYYCATRYYLNFLDGYNYWGQGTQVTVSS , field polyreactivity (PSR sort gate): high polyreactivity
